target: Bub1 (Homo sapiens); test: Formation-Assay: phosphorylation status of histone 2A by inhibition of kinase activity of Bub1; type: cell-based; settings: Biological Assay 4.1: H2A Formation IC50, co-treatment with Nocodazole 1 μg/ml, 16 h
Sequence (O43683 whole entry): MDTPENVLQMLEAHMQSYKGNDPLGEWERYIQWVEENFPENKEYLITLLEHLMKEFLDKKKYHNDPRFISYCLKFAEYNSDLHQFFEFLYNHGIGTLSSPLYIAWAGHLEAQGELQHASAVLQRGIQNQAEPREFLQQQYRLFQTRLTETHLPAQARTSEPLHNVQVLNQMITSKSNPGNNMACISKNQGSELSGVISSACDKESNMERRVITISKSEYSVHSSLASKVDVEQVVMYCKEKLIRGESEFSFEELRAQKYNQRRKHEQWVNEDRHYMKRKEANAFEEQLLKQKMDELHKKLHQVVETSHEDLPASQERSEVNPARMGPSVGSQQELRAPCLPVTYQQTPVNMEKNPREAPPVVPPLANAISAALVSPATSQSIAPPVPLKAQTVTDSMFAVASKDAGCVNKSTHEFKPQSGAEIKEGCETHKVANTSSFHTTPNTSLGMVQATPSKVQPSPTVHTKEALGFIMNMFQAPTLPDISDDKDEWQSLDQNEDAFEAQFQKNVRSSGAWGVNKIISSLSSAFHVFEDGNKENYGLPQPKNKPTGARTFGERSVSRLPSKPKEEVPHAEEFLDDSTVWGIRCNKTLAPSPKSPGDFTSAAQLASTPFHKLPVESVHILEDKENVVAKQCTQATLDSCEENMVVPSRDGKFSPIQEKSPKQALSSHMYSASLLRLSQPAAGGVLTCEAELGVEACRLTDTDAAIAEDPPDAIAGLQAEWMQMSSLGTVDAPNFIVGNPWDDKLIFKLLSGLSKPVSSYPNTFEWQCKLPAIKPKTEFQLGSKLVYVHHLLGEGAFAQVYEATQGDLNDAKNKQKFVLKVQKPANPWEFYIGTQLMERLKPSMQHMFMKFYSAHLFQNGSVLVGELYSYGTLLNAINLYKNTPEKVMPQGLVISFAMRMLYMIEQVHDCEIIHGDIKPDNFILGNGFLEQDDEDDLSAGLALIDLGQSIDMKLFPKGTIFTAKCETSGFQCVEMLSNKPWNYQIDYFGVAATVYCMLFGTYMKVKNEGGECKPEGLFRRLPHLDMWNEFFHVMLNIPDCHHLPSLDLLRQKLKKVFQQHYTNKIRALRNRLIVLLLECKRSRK
pIC50: −log10 of the molar value.
quantity: pIC50

Record excerpt, results attached:
• CCOc1cc(F)c(Cn2nc(-c3ncc(CC4CNC4)c(Nc4ccnc(NC(C)=O)c4)n3)c3ccccc32)c(F)c1 = 8.17
• CCOc1cc(F)c(Cn2nc(-c3nc4c(c(Nc5ccnc(NC(C)=O)c5)n3)CC(C)(C)C4)c3ccccc32)c(F)c1 = 8.48
• OCCOc1cc(F)c(Cn2nc(-c3ncc(C4CCN(CC(F)(F)F)CC4)c(Nc4ccncc4Cl)n3)c3ccccc32)c(F)c1 = 8.15
• CCOc1cc(F)c(Cn2nc(-c3ncc(C4CCN(CCC(F)(F)F)CC4)c(Nc4ccncc4OC)n3)c3ccccc32)c(F)c1 = 7.14
• CCOc1cc(F)c(Cn2nc(-c3nc(CN4CCOCC4)cc(Nc4ccncc4C)n3)c3ccccc32)c(F)c1 = 8.18

1: CCOc1cc(F)c(Cn2nc(-c3nc4c(c(Nc5ccncc5OC)n3)COC4)c3ccccc32)c(F)c1
2: CCOc1cc(F)c(Cn2nc(-c3ncc(C4CNC4)c(Nc4ccncc4)n3)c3ccccc32)c(F)c1
3: CCOc1cc(F)c(Cn2nc(-c3ncc(C4CCN(CC(F)(F)F)CC4)c(Nc4ccnc(C)c4)n3)c3ccccc32)c(F)c1
[Q] Reorder: pIC50, max to min. Rank them, then answer with their labels in that order.
[A] 3, 2, 1
(3: 9.30, 2: 7.77, 1: 5.15)

* * *

biological target: catalytic domain of human Bub1 (amino acids 704-1085) (Homo sapiens, UniProt O43683); construct: catalytic domain of human Bub1 (amino acids 704-1085); His6 (N); made in house; host or cells: Hi5 insect cells; assay: Bub1 kinase assay (TR-FRET); format: biochemical; conditions: Biological Assay 1: Bub1 kinase assay median IC50, 10 μM ATP
Sequence (O43683 704-1085): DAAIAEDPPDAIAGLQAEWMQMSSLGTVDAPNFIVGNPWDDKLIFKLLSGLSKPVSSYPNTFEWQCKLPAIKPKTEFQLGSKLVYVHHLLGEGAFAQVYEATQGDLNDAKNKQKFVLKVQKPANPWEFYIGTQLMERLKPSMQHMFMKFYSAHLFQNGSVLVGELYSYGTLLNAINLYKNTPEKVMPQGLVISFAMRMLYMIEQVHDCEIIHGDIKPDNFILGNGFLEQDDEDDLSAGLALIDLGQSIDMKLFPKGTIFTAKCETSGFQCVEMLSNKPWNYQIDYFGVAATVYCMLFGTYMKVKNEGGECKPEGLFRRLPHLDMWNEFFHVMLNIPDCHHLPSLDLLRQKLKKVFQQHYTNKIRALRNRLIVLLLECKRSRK
pIC50: −log10 of the molar value.
quantity: pIC50

* CCOc1cc(F)c(Cn2nc(-c3ncc(CC4OCCO4)c(Nc4ccncc4)n3)c3ccccc32)c(F)c1 [Example 2-2-15] | 7.85
* OCCOc1cc(F)c(Cn2nc(-c3ncc(C4CCN(CC(F)(F)F)CC4)c(Nc4ccncc4Cl)n3)c3ccccc32)c(F)c1 [Example 2-6-14] | 7.44

1: CCOc1cc(F)c(Cn2nc(-c3ncc(C4CCN(CCC(F)(F)F)CC4)c(Nc4ccncc4OC)n3)c3ccccc32)c(F)c1 [Example 2-22-1]
2: CCOc1cc(F)c(Cn2nc(-c3nc(Nc4ccncn4)cc(C4CCOCC4)n3)c3ccccc32)c(F)c1 [Example 2-12-92]
[Q] Return label of the item with the larger pIC50. Candidates: 1 , 2 . Write down the label of the entry you select.
[A] 2

* * *

target: catalytic domain of human Bub1 (amino acids 704-1085) (Homo sapiens); construct: catalytic domain of human Bub1 (amino acids 704-1085); His6 (N); made in house; host or cells: Hi5 insect cells; assay: Bub1 kinase assay (TR-FRET); type: biochemical; details: Biological Assay 1: Bub1 kinase assay median IC50, 10 μM ATP
pIC50: −log10 of the molar value.
quantity: pIC50

Known results for compounds:
• Cc1cnccc1Nc1nc(-c2nn(Cc3c(F)cc(OCCO)cc3F)c3ccccc23)nc2c1CCC2 = 8.30
• CCOc1cc(F)c(Cn2nc(-c3ncc(CC[S@](C)(=N)=O)c(Nc4ccncc4)n3)c3ccccc32)c(F)c1 = 8.20
• CCOc1cc(F)c(Cn2nc(-c3nc(Nc4ccncn4)cc(C4CCCO4)n3)c3ccccc32)c(F)c1 (racemic) = 8.12

1: C[S@@+]([O-])CCCc1cnc(-c2nn(Cc3c(F)cc(OCCO)cc3F)c3ccccc23)nc1Nc1ccncc1
2: COCCOc1cc(F)c(Cn2nc(-c3nc(C)cc(Nc4ccnc(C)n4)n3)c3ccccc32)c(F)c1
[Q] Between 1 and 2 , which one shows the larger pIC50 value? // respond with label for picked entry
[A] 2

I: CCOc1cc(F)c(Cn2nc(-c3nc(COC)cc(Nc4ccnc(C)c4)n3)c3ccccc32)c(F)c1
II: CCOc1cc(F)c(Cn2nc(-c3ncc(CCCCN4CCCC(F)(F)C4)c(Nc4ccncc4)n3)c3ccccc32)c(F)c1
[Q] Of I versus II , which is the one with smaller reported pIC50? Choose, then provide that item's label.
[A] II
(II: 7.02, I: 7.68)

a: CCOc1cc(F)c(Cn2nc(-c3nc4c(c(Nc5ccncc5)n3)CNCC4)c3ccccc32)c(F)c1
b: CCOc1cc(F)c(Cn2nc(-c3ncc(C4CCNCC4)c(Nc4ccnc(NC(C)=O)c4)n3)c3ccccc32)c(F)c1
c: CCOc1cc(F)c(Cn2nc(-c3nc(COC)cc(Nc4ccnc(NC(C)=O)c4)n3)c3ccccc32)c(F)c1
[Q] Put the compounds in ascending order of pIC50. Could you list the labels in the order requested?
[A] a, b, c
(a: 7.80, b: 8.07, c: 8.28)

1: COCCOc1cc(F)c(Cn2nc(-c3ncc(C4CCN(CC(F)(F)F)CC4)c(Nc4ccnc(NC(C)=O)c4)n3)c3ccccc32)c(F)c1
2: CCOc1cc(F)c(Cn2nc(-c3nc4c(c(Nc5ccnc(C)c5)n3)CS(=O)(=O)C4)c3ccccc32)c(F)c1
[Q] Which one would you say has the larger pIC50 value: 1 , or 2 ? Write down the label of the entry you select.
[A] 1
